All values here come from paper PMC9516332.

Catalogue of inhibition at 1 µM readings, one per entry.
# targetOrSystem: panel of 255 wild-type kinases (Homo sapiens)
# assayComment: Kinase panel profiling at 1 µmol/L (MSA or IMAP), percentage inhibition
# Type: biochemical
# experimentalSetup: kinase ROS; 1 µmol/L single concentration; read-out: %-inhibition at 1 µmol/L, ROS
reportedProperty: inhibition at 1 µM (%)

>>> measvalue("CO[C@]1(C(=O)N[C@@H](C)c2ccc(-n3cc(F)cn3)nc2)CC[C@H](c2nc(C)cc(Nc3cc(C)[nH]n3)n2)CC1")
94
>>> measvalue("C[C@H](Nc1ncnc2nc[nH]c12)c1cc2cccc(Cl)c2c(=O)n1-c1ccccc1")
-3.53
>>> measvalue("Cn1cnc2c(F)c(Nc3ccc(Br)cc3F)c(C(=O)NOCCO)cc21")
16
>>> measvalue("CCN1CCN(c2ccc(Nc3cc(N(C)C(=O)Nc4c(Cl)c(OC)cc(OC)c4Cl)ncn3)cc2)CC1")
29
>>> measvalue("Cn1cnc2c(F)c(Nc3ccc(Br)cc3Cl)c(C(=O)NOCCO)cc21")
15
>>> measvalue("Cc1nc(NC(=O)N2CCC[C@H]2C(N)=O)sc1-c1ccnc(C(C)(C)C(F)(F)F)c1")
-6
>>> measvalue("COC(=O)N[C@@H](C)CNc1nccc(-c2cn(C(C)C)nc2-c2cc(Cl)cc(NS(C)(=O)=O)c2F)n1")
14

###

Catalogue of inhibition at 1 µM readings, one per entry.
# targetOrSystem: panel of 255 wild-type kinases (Homo sapiens)
# assayComment: Kinase panel profiling at 1 µmol/L (MSA or IMAP), percentage inhibition
# Type: biochemical
# experimentalSetup: kinase PKCι; 1 µmol/L single concentration; read-out: %-inhibition at 1 µmol/L, PKCι
reportedProperty: inhibition at 1 µM (%)

>>> measvalue("C=CC(=O)N1CCC([C@@H]2CCNc3c(C(N)=O)c(-c4ccc(Oc5ccccc5)cc4)nn32)CC1 [zanubrutinib]")
-8
>>> measvalue("Cc1nc(NC(=O)N2CCC[C@H]2C(N)=O)sc1-c1ccnc(C(C)(C)C(F)(F)F)c1 [alpelisib]")
21
>>> measvalue("CCn1c(=O)c(-c2cc(NC(=O)Nc3ccccc3)c(F)cc2Br)cc2cnc(NC)cc21 [ripretinib]")
21

###

# targetOrSystem: panel of 255 wild-type kinases (Homo sapiens, UniProt P57059)
# Sequence (P57059 whole entry): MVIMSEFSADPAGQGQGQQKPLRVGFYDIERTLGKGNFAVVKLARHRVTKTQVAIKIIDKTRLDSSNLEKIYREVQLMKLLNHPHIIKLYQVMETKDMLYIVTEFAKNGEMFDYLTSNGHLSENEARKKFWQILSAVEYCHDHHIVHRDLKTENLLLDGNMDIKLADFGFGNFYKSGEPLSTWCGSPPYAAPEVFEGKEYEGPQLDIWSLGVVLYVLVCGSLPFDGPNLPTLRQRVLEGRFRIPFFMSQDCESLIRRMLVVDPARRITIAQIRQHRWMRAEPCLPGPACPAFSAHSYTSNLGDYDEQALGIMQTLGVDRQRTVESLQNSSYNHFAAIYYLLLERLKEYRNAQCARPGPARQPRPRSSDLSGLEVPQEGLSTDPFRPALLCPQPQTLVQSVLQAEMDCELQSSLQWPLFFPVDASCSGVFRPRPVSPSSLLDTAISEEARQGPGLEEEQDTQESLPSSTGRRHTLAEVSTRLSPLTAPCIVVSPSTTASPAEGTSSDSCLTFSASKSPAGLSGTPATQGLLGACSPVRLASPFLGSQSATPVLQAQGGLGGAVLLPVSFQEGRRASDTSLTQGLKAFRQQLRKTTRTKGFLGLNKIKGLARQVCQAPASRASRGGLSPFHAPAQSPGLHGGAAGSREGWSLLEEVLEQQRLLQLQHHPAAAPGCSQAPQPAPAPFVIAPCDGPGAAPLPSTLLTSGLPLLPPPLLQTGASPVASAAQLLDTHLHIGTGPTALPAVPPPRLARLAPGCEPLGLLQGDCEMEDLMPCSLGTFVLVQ
# assayComment: Kinase panel profiling at 1 µmol/L (MSA or IMAP), percentage inhibition
# Assay type: biochemical
# experimentalSetup: kinase SIK; 1 µmol/L single concentration; read-out: %-inhibition at 1 µmol/L, SIK
reportedProperty: inhibition at 1 µM (%)

>>> measvalue("Cn1cnc2c(F)c(Nc3ccc(Br)cc3Cl)c(C(=O)NOCCO)cc21 [selumetinib]")
-3
>>> measvalue("C[C@H](Nc1ncnc2nc[nH]c12)c1cc2cccc(Cl)c2c(=O)n1-c1ccccc1 [duvelisib]")
-1.9
>>> measvalue("FC(F)(F)c1ccc(CNc2ccc(Cc3c[nH]c4ncc(Cl)cc34)cn2)cn1 [pexidartinib]")
9
>>> measvalue("CCc1nc(C(N)=O)c(Nc2ccc(N3CCC(N4CCN(C)CC4)CC3)c(OC)c2)nc1NC1CCOCC1 [gilteritinib]")
59
>>> measvalue("Cn1cnc2c(F)c(Nc3ccc(Br)cc3F)c(C(=O)NOCCO)cc21 [binimetinib]")
0.277
>>> measvalue("C=CC(=O)N1CCC([C@@H]2CCNc3c(C(N)=O)c(-c4ccc(Oc5ccccc5)cc4)nn32)CC1 [zanubrutinib]")
-2
>>> measvalue("Cc1nc(NC(=O)N2CCC[C@H]2C(N)=O)sc1-c1ccnc(C(C)(C)C(F)(F)F)c1 [alpelisib]")
-10
>>> measvalue("CCN1CCN(c2ccc(Nc3cc(N(C)C(=O)Nc4c(Cl)c(OC)cc(OC)c4Cl)ncn3)cc2)CC1 [infigratinib]")
30
>>> measvalue("COc1cc2ncnc(Nc3ccc(F)c(Cl)c3)c2cc1NC(=O)/C=C/CN1CCCCC1 [dacomitinib]")
40
